System: Escherichia coli TOP10
procedure text: shrunken log2 fold change of peptide-encoding DNA abundance (4.5 h post-induction vs induction); higher = less antimicrobial activity (less host growth inhibition)
recorded conditions: time post-induction: 4.5 h; library: site-saturation at positions 5, 18, 19, 20
measured attribute: shrunken log2 fold change

In [3]: df
Out[3]:
             sequence_data         measured_attribute  endpoint_result
0  RRIRMRPPRLPRPRPRPTMFPRP  shrunken log2 fold change            0.137
1  RRIRYRPPRLPRPRPRPTQLPRP  shrunken log2 fold change            -0.46
2  RRIRGRPPRLPRPRPRPAPAPRP  shrunken log2 fold change             1.14
3  RRIRARPPRLPRPRPRPGIKPRP  shrunken log2 fold change          -0.0359

---

Test system: Escherichia coli TOP10
procedure text: shrunken log2 fold change of peptide-encoding DNA abundance (4.5 h post-induction vs induction); higher = less antimicrobial activity (less host growth inhibition)
recorded conditions: time post-induction: 4.5 h; library: site-saturation at positions 5, 18, 19, 20
Classification field: label 1 = shrunken log2 fold change at or over 0.2; label 0 = shrunken log2 fold change under 0.2.

              sequence_data    label
 0  RRIRVRPPRLPRPRPRPEYKPRP  label 0
 1  RRIRERPPRLPRPRPRPSQMPRP  label 0
 2  RRIRERPPRLPRPRPRPKPFPRP  label 0
 3  RRIRERPPRLPRPRPRPAMTPRP  label 0
 4  RRIRARPPRLPRPRPRPSLPPRP  label 0
 5  RRIRDRPPRLPRPRPRPDSRPRP  label 0
 6  RRIRDRPPRLPRPRPRPRWHPRP  label 1
 7  RRIRGRPPRLPRPRPRPRCVPRP  label 1
 8  RRIRERPPRLPRPRPRPQLTPRP  label 0
 9  RRIRERPPRLPRPRPRPVTPPRP  label 0
10  RRIRARPPRLPRPRPRPVVPPRP  label 1
11  RRIRSRPPRLPRPRPRPYSGPRP  label 0
12  RRIRERPPRLPRPRPRPRQWPRP  label 0
13  RRIRRRPPRLPRPRPRPKRGPRP  label 1

---

System: Escherichia coli TOP10
procedure text: shrunken log2 fold change of peptide-encoding DNA abundance (4.5 h post-induction vs induction); higher = less antimicrobial activity (less host growth inhibition)
recorded conditions: time post-induction: 4.5 h; library: site-saturation at positions 5, 18, 19, 20
Each entry below lists one item and its recorded shrunken log2 fold change value.
measured attribute: shrunken log2 fold change

>>> df
             sequence_data     experimental_system  endpoint_result
0  RRIRKRPPRLPRPRPRPKVRPRP  Escherichia coli TOP10            0.131
1  RRIRIRPPRLPRPRPRPEDKPRP  Escherichia coli TOP10           -0.401
2  RRIRGRPPRLPRPRPRPHITPRP  Escherichia coli TOP10          -0.0465
3  RRIRCRPPRLPRPRPRPQDHPRP  Escherichia coli TOP10           -0.226
4  RRIRERPPRLPRPRPRPRAMPRP  Escherichia coli TOP10           0.0549
5  RRIRYRPPRLPRPRPRPWLEPRP  Escherichia coli TOP10           -0.118
6  RRIRCRPPRLPRPRPRPPLGPRP  Escherichia coli TOP10            0.807
7  RRIRFRPPRLPRPRPRPHQQPRP  Escherichia coli TOP10           0.0921

---

Each entry below lists one item and its recorded shrunken log2 fold change value.
Tested on: Escherichia coli TOP10
procedure text: shrunken log2 fold change of peptide-encoding DNA abundance (4.5 h post-induction vs induction); higher = less antimicrobial activity (less host growth inhibition)
recorded conditions: time post-induction: 4.5 h; library: site-saturation at positions 5, 18, 19, 20
measured attribute: shrunken log2 fold change

             sequence_data         measured_attribute  endpoint_result
0  RRIRQRPPRLPRPRPRPGQFPRP  shrunken log2 fold change            0.121
1  RRIRIRPPRLPRPRPRPSRSPRP  shrunken log2 fold change           -0.605
2  RRIRQRPPRLPRPRPRPNRKPRP  shrunken log2 fold change           -0.141
3  RRIRPRPPRLPRPRPRPFPHPRP  shrunken log2 fold change           -0.129
4  RRIRHRPPRLPRPRPRPRQTPRP  shrunken log2 fold change           0.0257
5  RRIRTRPPRLPRPRPRPQHIPRP  shrunken log2 fold change           -0.554

---

Test system: Escherichia coli TOP10
procedure text: shrunken log2 fold change of peptide-encoding DNA abundance (4.5 h post-induction vs induction); higher = less antimicrobial activity (less host growth inhibition)
recorded conditions: time post-induction: 4.5 h; library: site-saturation at positions 5, 18, 19, 20
Decision: shrunken log2 fold change >= -0.02 yields Criterion met, all other cases yield Criterion not met.

>>> df
              sequence_data              label
 0  RRIRERPPRLPRPRPRPINMPRP  Criterion not met
 1  RRIRFRPPRLPRPRPRPTTYPRP  Criterion not met
 2  RRIRRRPPRLPRPRPRPDTEPRP      Criterion met
 3  RRIRARPPRLPRPRPRPMMHPRP      Criterion met
 4  RRIRMRPPRLPRPRPRPHMVPRP      Criterion met
 5  RRIRTRPPRLPRPRPRPWIDPRP  Criterion not met
 6  RRIRNRPPRLPRPRPRPQGHPRP  Criterion not met
 7  RRIRSRPPRLPRPRPRPHRVPRP      Criterion met
 8  RRIRIRPPRLPRPRPRPCKGPRP      Criterion met
 9  RRIRERPPRLPRPRPRPKSWPRP      Criterion met
10  RRIRTRPPRLPRPRPRPHISPRP  Criterion not met
11  RRIRWRPPRLPRPRPRPDREPRP      Criterion met
12  RRIRQRPPRLPRPRPRPQTTPRP  Criterion not met
13  RRIRIRPPRLPRPRPRPCFQPRP  Criterion not met
14  RRIRARPPRLPRPRPRPIRIPRP      Criterion met
15  RRIRNRPPRLPRPRPRPSYKPRP  Criterion not met
16  RRIRFRPPRLPRPRPRPLGAPRP      Criterion met
17  RRIRIRPPRLPRPRPRPYYIPRP  Criterion not met
18  RRIRYRPPRLPRPRPRPSMHPRP  Criterion not met
19  RRIRIRPPRLPRPRPRPLLVPRP  Criterion not met
20  RRIRTRPPRLPRPRPRPKFDPRP  Criterion not met
21  RRIRERPPRLPRPRPRPPIMPRP  Criterion not met
22  RRIRGRPPRLPRPRPRPFFYPRP      Criterion met

---

Tested on: Escherichia coli TOP10;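 also: peptides expressed intracellularly from a pBAD plasmid library in pooled LB shake-flask culture, induced with 0.3% L-arabinose, DNA abundance read by NGS, three biological replicates, DESeq2 with apeglm shrinkage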
procedure text: shrunken log2 fold change of peptide-encoding DNA abundance (4.5 h post-induction vs induction); higher = less antimicrobial activity (less host growth inhibition)
recorded conditions: time post-induction: 4.5 h; library: site-saturation at positions 5, 18, 19, 20
Quick reference: shrunken log2 fold change of the listed items.
measured attribute: shrunken log2 fold change

>>> print(df.to_string())
              sequence_data         measured_attribute  endpoint_result
 0  RRIRLRPPRLPRPRPRPFCRPRP  shrunken log2 fold change           0.0702
 1  RRIRMRPPRLPRPRPRPPLWPRP  shrunken log2 fold change             1.31
 2  RRIRQRPPRLPRPRPRPQSCPRP  shrunken log2 fold change          0.00408
 3  RRIRYRPPRLPRPRPRPGVNPRP  shrunken log2 fold change            -3.04
 4  RRIRMRPPRLPRPRPRPETAPRP  shrunken log2 fold change             4.06
 5  RRIRWRPPRLPRPRPRPVWPPRP  shrunken log2 fold change            0.909
 6  RRIRCRPPRLPRPRPRPGRKPRP  shrunken log2 fold change           0.0644
 7  RRIRRRPPRLPRPRPRPYNWPRP  shrunken log2 fold change           -0.734
 8  RRIRKRPPRLPRPRPRPLLKPRP  shrunken log2 fold change          0.00409
 9  RRIRIRPPRLPRPRPRPLGNPRP  shrunken log2 fold change            -0.19
10  RRIRNRPPRLPRPRPRPGFAPRP  shrunken log2 fold change            0.444
11  RRIRVRPPRLPRPRPRPFCAPRP  shrunken log2 fold change          0.00539
12  RRIRNRPPRLPRPRPRPLALPRP  shrunken log2 fold change           -0.239
13  RRIRHRPPRLPRPRPRPFFLPRP  shrunken log2 fold change           -0.238
14  RRIRIRPPRLPRPRPRPRHRPRP  shrunken log2 fold change          -0.0972
15  RRIRTRPPRLPRPRPRPFSDPRP  shrunken log2 fold change           -0.399
16  RRIRHRPPRLPRPRPRPGWEPRP  shrunken log2 fold change            0.274
17  RRIRGRPPRLPRPRPRPNYMPRP  shrunken log2 fold change          -0.0439
18  RRIRTRPPRLPRPRPRPVCHPRP  shrunken log2 fold change           -0.173
19  RRIRYRPPRLPRPRPRPFLVPRP  shrunken log2 fold change            -1.03
20  RRIRTRPPRLPRPRPRPNRRPRP  shrunken log2 fold change           0.0696
21  RRIRWRPPRLPRPRPRPLVNPRP  shrunken log2 fold change          -0.0798
22  RRIRERPPRLPRPRPRPIAAPRP  shrunken log2 fold change            0.466
23  RRIRERPPRLPRPRPRPQWHPRP  shrunken log2 fold change           -0.479
24  RRIRERPPRLPRPRPRPNVIPRP  shrunken log2 fold change            -1.38
25  RRIRDRPPRLPRPRPRPLKCPRP  shrunken log2 fold change            0.055
26  RRIRKRPPRLPRPRPRPLFPPRP  shrunken log2 fold change            0.161
27  RRIRMRPPRLPRPRPRPASMPRP  shrunken log2 fold change            0.311
28  RRIRERPPRLPRPRPRPQCIPRP  shrunken log2 fold change           0.0341
29  RRIRCRPPRLPRPRPRPCGKPRP  shrunken log2 fold change          -0.0972
30  RRIRVRPPRLPRPRPRPINQPRP  shrunken log2 fold change           -0.749
31  RRIRPRPPRLPRPRPRPGLWPRP  shrunken log2 fold change            0.341
32  RRIRERPPRLPRPRPRPMRSPRP  shrunken log2 fold change            0.119
33  RRIRARPPRLPRPRPRPRHAPRP  shrunken log2 fold change            0.612
